Tested target: T1, human ROR1 (full-length, on the cell surface) (human, UniProt Q01973 30-937)
T1 construct: whole, on cells; the tumour cell lines carry their own ROR1; also called Ba/F3-ROR1 cells; Jeko-1
T1 sequence (Q01973 30-937): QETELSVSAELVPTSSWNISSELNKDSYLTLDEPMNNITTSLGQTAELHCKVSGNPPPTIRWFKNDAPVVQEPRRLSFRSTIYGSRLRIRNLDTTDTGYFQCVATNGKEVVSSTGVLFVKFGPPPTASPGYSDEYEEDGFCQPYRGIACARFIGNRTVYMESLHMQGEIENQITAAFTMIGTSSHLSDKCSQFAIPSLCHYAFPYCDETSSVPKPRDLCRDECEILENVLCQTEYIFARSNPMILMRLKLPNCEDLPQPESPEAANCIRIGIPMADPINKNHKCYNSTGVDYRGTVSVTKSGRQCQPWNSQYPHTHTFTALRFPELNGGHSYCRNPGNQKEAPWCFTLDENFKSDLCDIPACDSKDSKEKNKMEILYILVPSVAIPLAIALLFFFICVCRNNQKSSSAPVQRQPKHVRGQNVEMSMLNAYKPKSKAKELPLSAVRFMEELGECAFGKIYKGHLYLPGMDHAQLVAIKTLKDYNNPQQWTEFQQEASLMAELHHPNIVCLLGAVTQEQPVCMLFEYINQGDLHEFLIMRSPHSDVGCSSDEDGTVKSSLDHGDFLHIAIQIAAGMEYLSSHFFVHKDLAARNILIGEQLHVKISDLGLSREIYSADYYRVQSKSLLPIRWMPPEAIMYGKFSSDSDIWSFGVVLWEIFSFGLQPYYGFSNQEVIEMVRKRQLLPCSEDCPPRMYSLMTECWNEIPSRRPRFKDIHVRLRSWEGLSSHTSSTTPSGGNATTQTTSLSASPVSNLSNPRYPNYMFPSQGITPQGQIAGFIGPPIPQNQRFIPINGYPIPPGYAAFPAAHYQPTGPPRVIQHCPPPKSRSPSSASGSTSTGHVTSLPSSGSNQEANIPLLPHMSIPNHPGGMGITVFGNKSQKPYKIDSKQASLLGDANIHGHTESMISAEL
Test name: flow cytometry, HT-29 cells
Readout name: EC50 (nM)
The answer is to be given in nM; state only the numeric part.

{"columns": ["Binder", "Units", "EC50"],
 "data": [
  ["38F8-Hu56 (antibody, human IgG1, kappa, V domains shown, humanized, human IgG1 / kappa) VH: EVQLVESGGGLVQPGGSLRLSCAASGFTFSNYAMSWVRQAPEKRLEWVASISSGGPTYYPDSVKGRFTVSRDNSKNTLYLQMNSLRAEDTAVYYCARGYRYDVNWYFDVWGAGTMVTVSS VL: DIQMTQSPSSLSASVGDRVTITCQASQDINSYLTWFQQKPGKSPKTLIHRANRLVTGVPSRFSGSGSGTDFTFTISSLQPEDIATYYCLQYDEFPYTFGGGTKVEIKR", "nM", 0.42],
  ["3D8-HuC84 (antibody, human IgG1, kappa, V domains shown, humanized, human IgG1 / kappa) VH: EVQLVESGGGLVQPGGSLRLSCAASGFTFSSYAMSWVRQAPEKRLEWVSSISSGGSTYYPDSVKGRFTISRDNSKNTLYLQMNSLRAEDTAVYYCARVNYYGYGDYAMDYWGQGTLVTVSS VL: DIQMTQSPSSLSASVGDRVTITCQASQDISNYLTWFQQKPGKSPKTLIHRANRLVTGVPSRFSGSGSGTDFTFTISSLQPEDIATYYCLQYDEFPYTFGGGTKVEIKR", "nM", 1.3],
  ["19F6-Hu33 (antibody, human IgG1, kappa, V domains shown, humanized, human IgG1 / kappa) VH: QVQLQESGPGLVKPSQTLSLTCTVSGYSITSDYAWNWIRQFPGKGLEWIGYISYSGSIRYNPSLKSRVTISRDTSKNQFSLKLSSVTAADTAVYYCARGEITYYFDYWGQGTLVTVSS VL: DIQMTQSPSSLSASVGDRVTITCRASTDIDDDMNWYQQKPGKAPKLLIYEGNTLQSGVPSRFSGSGYGTDFTLTISSLQPEDFATYYCLQSNDLPLTFGQGTKLEIKR", "nM", 0.78]
]}

# EC50 lookup, item 3D8-Hu85 (antibody, human IgG1, kappa, V domains shown, humanized, human IgG1 / kappa) VH: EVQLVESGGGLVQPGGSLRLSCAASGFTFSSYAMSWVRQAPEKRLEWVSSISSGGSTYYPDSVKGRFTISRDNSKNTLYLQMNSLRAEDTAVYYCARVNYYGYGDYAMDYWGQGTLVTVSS VL: DIQMTQSPSSLSASVGDRVTITCQASQDINSYLSWFQQKPGKAPKTLIYRANRLVTGVPSRFSGSGSGTDFTFTISSLQPEDIATYYCLQYDEFPYTFGGGTKLEIKR
0.25

# EC50 lookup, item 38F8-Hu67 (antibody, human IgG1, kappa, V domains shown, humanized, human IgG1 / kappa) VH: QVQLVESGGGLVKPGGSLRLSCAASGFTFSNYAMSWVRQAPEKRLEWVASISSGGPTYYPDSVKGRFTISRDNAKNSLYLQMNSLRAEDTAVYYCARGYRYDVNWYFDVWGAGTMVTVSS VL: DIQMTQSPSSLSASVGDRVTITCQASQDISNYLTWFQQKPGKSPKTLIHRANRLVTGVPSRFSGSGSGTDYTFTISSLQPEDIAIYYCLQYDEFPYTFGGGTKVEIKR
0.61

# EC50 lookup, item 3D8-HuC54 (antibody, human IgG1, kappa, V domains shown, humanized, human IgG1 / kappa) VH: EVQLVESGGGLVQPGGSLRLSCAASGFTFSSYAMSWVRQAPGKGLEWVSSINSGGSTYYPDSVKGRFTISRENAKNSLYLQMNSLRAGDTAVYYCARVNYYGYGDYAMDYWGQGTLVTVSS VL: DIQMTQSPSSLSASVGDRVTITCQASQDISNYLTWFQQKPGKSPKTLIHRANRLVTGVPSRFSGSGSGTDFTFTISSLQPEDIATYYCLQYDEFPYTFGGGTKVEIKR
0.19

# EC50 lookup, item 3D8-HuC24 (antibody, human IgG1, kappa, V domains shown, humanized, human IgG1 / kappa) VH: EVQLVESGGGLVQPGGSLRLSCAASGFTFSSYAMSWVRQAPGKGLEWVASINSGGSTYYPDSVKGRFTISRDNAKNSLYLQMNSLRAEDTAVYYCARVNYYGYGDYAMDYWGQGTLVTVSS VL: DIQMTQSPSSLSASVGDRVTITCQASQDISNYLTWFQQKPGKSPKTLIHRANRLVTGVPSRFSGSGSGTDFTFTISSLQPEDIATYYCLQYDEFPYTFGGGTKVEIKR
0.17

# EC50 lookup, item 38F8-Hu14 (antibody, human IgG1, kappa, V domains shown, humanized, human IgG1 / kappa) VH: EVQLVESGGGLVQPGGSLRLSCTASGFTFSNYAMSWVRQAPGKGLEWVASISSGGPTYYADSVKGRFTVSRDNSRNTLYLQMNSLRAEDTAVYYCARGYRYDVNWYFDVWGRGTLVTVSS VL: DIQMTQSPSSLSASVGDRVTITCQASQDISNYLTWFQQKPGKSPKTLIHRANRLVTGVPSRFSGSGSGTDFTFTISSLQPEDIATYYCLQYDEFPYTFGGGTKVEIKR
0.24

# EC50 lookup, item 19F6-Hu23 (antibody, human IgG1, kappa, V domains shown, humanized, human IgG1 / kappa) VH: QVQLQESGPGLVKPSETLSLTCTVSGYSITSDYAWNWIRQPPGKGLEWMGYISYSGSIRYNPSLKDRITISRDTSKNQFSLKLSSVTAADTAVYYCARGEITYYFDYWGQGTLVTVSS VL: DIQMTQSPSSLSASVGDRVTITCRASTDIDDDMNWYQQKPGKAPKLLIYEGNTLQSGVPSRFSGSGYGTDFTLTISSLQPEDFATYYCLQSNDLPLTFGQGTKLEIKR
0.62

# EC50 lookup, item 3D8-Hu46 (antibody, human IgG1, kappa, V domains shown, humanized, human IgG1 / kappa) VH: EVQLVESGGGLVQPGGSLRLSCAASGFTFSSYAMSWVRQAPGKGLEWVSSINSGGSTYYPDSVKGRFTISRDNSKNTLYLQMNSLRAEDTAVYYCARVNYYGYGDYAMDYWGQGTLVTVSS VL: DIQMTQSPSSLSASVGDRVTITCQASQDINSYLSWFQQKPGKSPKTLIYRANRLVTGVPSRFSGSGSGTDYTFTISSLQPEDIATYYCLQYDEFPYTFGGGTKLEIKR
0.35
